# System: L1210
# procedure-summary: Inhibition of RNA synthesis in mouse L1210 cells assessed as inhibition of [3H]uridine incorporation
# Type: functional
# settings: read-out: ED50 (the source's name)
Give measured EC50 for each item. Keep answers brief.
Give bare numbers, in nM.

These recorded examples may help you get a feel for the data.
Ask: Given the compound COc1cccc2c1C(=O)c1c(O)c3c(c(O)c1C2=O)C[C@@](O)(C(C)=O)C[C@@H]3SCCN.Cl , what is its reported EC50?
Result: 4000

Ask: Now consider COc1cccc2c1C(=O)c1c(O)c3c(c(O)c1C2=O)C[C@@](O)(C(C)=O)C[C@@H]3O[C@H]1C[C@H](N)[C@H](O)[C@H](C)O1.Cl [DAUNORUBICIN HYDROCHLORIDE] and answer again.
Result: 300

// each listed compound needs a value for EC50
1. COc1cccc2c1C(=O)c1c(O)c3c(c(O)c1C2=O)C[C@@](O)(C(C)=O)C[C@@H]3OCCN.Cl
2. COc1cccc2c1C(=O)c1c(O)c3c(c(O)c1C2=O)C[C@@](O)(C(=O)CO)C[C@@H]3O[C@H]1C[C@H](N)[C@H](O)[C@H](C)O1 [DOXORUBICIN]
3. COc1cccc2c1C(=O)c1c(O)c3c(c(O)c1C2=O)C[C@@](O)(C(C)=O)C[C@@H]3OC(=O)CCN.Cl

Result:
1000
700
6000
